Listed below: TGI values for each entry.
# Tested on: SF-295 CNS
# assay-procedure: NCI tumour cell line growth inhibition, 48 h
readout-name: TGI

- CCCCC(OC(=O)c1ccc(N)cc1)C(=O)Nc1nc(CC(=O)OCC)cs1 (centres undefined): > 100 µM
- CC[C@@H]1CSC(/C=C/C2OC3OC(C)(C)OC3C3OC(C)(C)OC23)=N1 (some centres undefined): 46.6 µM
- CSc1ccc2c(cc1=O)C(NC(=O)c1ccccc1)CCc1cc(O)c(O)c(O)c1-2 (centres undefined): > 100 µM
- Cc1nc(-n2nc(-c3ccccc3)cc2-c2ccccc2)sc1C(=O)/C=C/c1ccc([N+](=O)[O-])cc1: > 100 µM
- C1=CC=C2NCCc3cccc(c3)CCNC3=CC=CC=CC3=NCCCCCCN=C2C=C1: 49.6 µM
- N#Cc1ccc(OCCSCCCCCCCCCCSCCOc2ccc(C#N)cc2)cc1: > 100 µM
- COc1ccc(NC(=O)C(C#N)=C(SC)SC)cc1: > 100 µM
- O=S(=O)(O)c1cc(S(=O)(=O)O)c2c(N=Nc3ccc(S(=O)(=O)O)c4ccccc34)c(O)ccc2c1: > 100 µM
- CSc1nc(NC2OCC(OC(C)=O)C(OC(C)=O)C2OC(C)=O)c2c(n1)OCC2=O (centres undefined): > 100 µM

* * *

# Tested on: NCI-H522 lung
# assay-procedure: NCI tumour cell line growth inhibition, 48 h
Listed below: TGI values for each entry.
readout-name: TGI (µM)

• Cc1nc2ccccc2c(/C=C/c2ccccc2)c1C(=O)/C=C/c1ccc(C(F)(F)F)cc1 = 6.32
• CC[C@]12C=CCN3CC[C@@]4(c5ccc(OC)cc5N(C)[C@H]4[C@@](O)(C(=O)OC)[C@@H]1OC(=O)CCC(=O)O[C@H]1CC[C@H]4[C@@H]5CC[C@H]6CC(=O)CC[C@]6(C)[C@H]5CC[C@]14C)[C@@H]32 = 27
• CC(C)CCCCCCCCCCCCC(=O)NCC(=O)NC1C(C)OC(Nc2ncnc3nc[nH]c23)C(O)C1O (centres undefined) = 0.0182
• CC1=C(SCCO)C(=O)c2ccccc2C1=O = 14.6
• O=S1(=O)c2cc(S(=O)(=O)n3ccnc3)ccc2NC2=NCCCN21 = 30.9
• CN(CCNC(=O)c1nn(-c2ccc(Cl)cc2Cl)c2c1Cc1ccccc1-2)CCNC(=O)c1nn(-c2ccc(Cl)cc2Cl)c2c1Cc1ccccc1-2 = 3.71
• C1=CCC[C@@H]2CN3CCCC/C=C\CCCC[C@H]4C[C@H](CN(CCCCCCCC1)C4)[C@H]2CC3 = 17.7
• CCCCCCCC(=O)OC[C@H](C[As](=O)(O)O)OC(=O)CCCCCCC = 4.07
• CCOC(=O)c1c(-c2ccc(OC)c(O)c2)c(C#N)c(=S)n(C2OC(COC(C)=O)C(OC(C)=O)C(OC(C)=O)C2OC(C)=O)c1-c1ccccc1 (centres undefined) = 45.7

* * *

Listed below: TGI values for each entry.
# Tested on: NCI-H460 lung
# assay-procedure: NCI tumour cell line growth inhibition, 48 h
Peptide text beside a SMILES is read from it. * marks the point of attachment. X34 = O=C(c1ccc(-c2ccc(Cl)cc2Cl)o1)*
readout-name: TGI

* CCCS(=O)(=O)Nc1cccc(Nc2ncnc3cc(NC(=O)CCl)ccc23)c1Cl | 8.06 µM
* CN(C)c1ccc(C2CC(=O)CC(c3ccc(N(C)C)cc3)C23C(=O)NC(=S)NC3=O)cc1 (centres undefined) | > 100 µM
* O=c1cc(-c2ccccc2)oc2c1ccc1ccccc12 | > 100 µM
* COC(=O)C(CC(C)C)NC(=O)C(Cc1ccccc1)NC(=O)C1CCCN1C(=O)C(CO)NC(=O)c1ccc(-c2ccc(Cl)cc2Cl)o1 (centres undefined) (X34-SPFL-OMe; configuration not given here) | 38.9 µM
* O=C(CC1(O)C(=O)Nc2ccc([N+](=O)[O-])cc21)c1ccncc1 (centres undefined) | > 100 µM
* COc1ccccc1/C=N/Nc1nnc2c3ccccc3c3ncccc3c2n1 | > 100 µM
* CC(=O)OC1=C2CC[C@@H]3C(CC[C@@]4(C)C3CC[C@@H]4OC(C)=O)[C@@]2(C)CC(C#N)C1=O (some centres undefined) | 74.4 µM
* [C-]#[N+]C(=C\c1ccc(O)cc1)/C(=C/c1ccc(O)cc1)[N+]#[C-] | > 28.6 µM
* COc1cc2c(c(OC)c1OC)-c1c(c3ccc([N+](=O)[O-])cc3c(=O)n1CCCBr)C2=O | > 100 µM
* CN(/N=C/c1ccc(Cl)c(Cl)c1)C1=NCCCCN1 | > 100 µM
* COc1ccc(-c2cc(=O)c3cc(Cl)ccc3[nH]2)cc1 | > 100 µM
* Cc1ccc2[nH]c(O)c(N=Nc3ccccc3[N+](=O)[O-])c2c1 | > 100 µM
* COC(=O)[C@@H]1C[C@]2(Br)c3ccccc3N(S(=O)(=O)c3ccccc3)[C@@H]2N1C(=O)OC | > 100 µM
* CCCCCCCC(=O)OCC1OC(n2cc(F)c(=O)[nH]c2=O)C(N)C(O)C1O (centres undefined) | > 100 µM
* Cc1nc(C)c(N2CCN(S(N)(=O)=O)CC2)c(=O)[nH]1 | > 100 µM
* CC(ON1[C@](C)(c2ccccc2)CC[C@@]1(C)c1ccccc1)c1ccccc1 (some centres undefined) | > 100 µM
* COc1ccc(C2CC(c3ccc(OC)cc3O)=NN2c2ccc(S(N)(=O)=O)cc2)cc1 (centres undefined) | 39.2 µM
* COc1cc2c(cc1O)c(=O)n(CCN(C)C)c1c3cc4c(cc3ncc21)OCO4 | 0.329 µM
* O=C1c2cn[nH]c2N=C(Nc2ccccc2)C1N=Cc1ccc([N+](=O)[O-])cc1 (centres undefined) | > 10 µM

* * *

# Tested on: HOP-62 NSCLC
# assay-procedure: NCI tumour cell line growth inhibition, 48 h
Listed below: TGI values for each entry.
readout-name: TGI

* Cc1cn(C2CC(N=[N+]=[N-])C(CO)O2)c(=O)n(CCCCBr)c1=O (stereo not given) | > 100 µM
* O=C(O[C@H]1[C@@H]2C=CO[C@@H](OC3OC(CO)C(O)C(O)C3O)[C@@H]2[C@@]2(CO)O[C@@H]12)c1ccc(O)c(O)c1 (stereo not given in full) | > 100 µM
* C[N+](C)(C)C1CC([N+](C)(C)C)C2c3ccccc3C21 (stereo not given) | > 100 µM
* CC(ON1[C@](C)(c2ccccc2)CC[C@@]1(C)c1ccccc1)c1ccccc1 (stereo not given in full) | > 100 µM
* COc1cc(NS(C)(=O)=O)ccc1Cc1c2ccccc2nc2ccccc12 | 0.368 µM

* * *

Listed below: TGI values for each entry.
# Test system: UACC-62 melanoma
# assay-procedure: NCI tumour cell line growth inhibition, 48 h
readout-name: TGI (µM)

- Cc1[nH]c2ccccc2c1C1=NO/C(=N\O)C(c2c(C)[nH]c3ccccc23)C1 (stereo not given): 62.7
- S=C1SCN(Cc2ccccc2)CN1Cc1ccccc1: 16.9
- CC1=C2[C@@H](CC1)[C@]1(C)O[C@@](C(C)C)(C[C@H]1OC(=O)CO)[C@H]2OC(=O)CCCc1ccccc1: 13.2
- FC(F)(F)c1cc(NC(=S)N2c3ccccc3-n3cccc3C2c2cccnc2)cc(C(F)(F)F)c1 (stereo not given): 24.4
- COc1ccc2c(c1)C(=O)c1c-2c(N2CCN(C(=O)CCNCCNCCN)CC2)nc2ccccc12: 55.3
- COC(=O)C1=C(C(=O)ON)[C@@H]2C=C[C@@]1([C@@H](Cc1ccccc1)Nc1ccccc1)O2: 19.3
- COCN1C(=N)C(C(=O)OC(C)(C)C)=C2C=C(O)C=CC21C (stereo not given): 29.1
- O=C(Nc1cccc(C(F)(F)F)c1)c1ccc(NC2=C(Cl)C(=O)N(Cc3ccccc3)C2=O)cc1: 25.5

* * *

# System: HT29 colon
# assay-procedure: NCI tumour cell line growth inhibition, 48 h
Listed below: TGI values for each entry.
readout-name: TGI

* CN=C1CN=C(OP(=O)(N2CCOCC2)N2CCOCC2)c2cc(Cl)ccc2N1 | > 100 µM
* COC(=O)C1=C(C(=O)ON)[C@@H]2C=C[C@@]1([C@@H](Cc1ccccc1)Nc1ccccc1)O2 | 3.97 µM
* CCOC(=O)C(NC(=O)c1cccc(Cl)c1)(Nc1ccc(S(=O)(=O)Nc2cc(C)nc(C)n2)cc1)C(F)(F)F (stereo not given) | > 100 µM
* Cc1[nH]c2ccccc2c1C1=NO/C(=N\O)C(c2c(C)[nH]c3ccccc23)C1 (stereo not given) | 58.9 µM
* Cc1cc(=O)oc2cc3oc(N(C)c4ccccc4)nc(=O)c3cc12 | > 100 µM
* CCOC(=O)[C@@H](NC(=O)OC(C)(C)C)[C@@H](O)C(=O)OCC | > 100 µM
* O=C(O)/C=C/c1ccc(OS(=O)(=O)O)cc1 | > 100 µM
* C[C@]12CCc3nonc3C1CC[C@@H]1C2CC[C@@]2(C)C1CC[C@@H]2O (stereo not given in full) | > 100 µM
* CCOC(=O)c1c(-c2ccc(OC)c(O)c2)c(C#N)c(=S)n(C2OC(COC(C)=O)C(OC(C)=O)C(OC(C)=O)C2OC(C)=O)c1-c1ccccc1 (stereo not given) | > 100 µM
* O=[N+]([O-])c1cccc(C2=NN(c3ccccc3)C3c4ccccc4OCC23)c1 (stereo not given) | > 100 µM
* COc1c(C)c(OC)c(C(=O)CC(C)C)c(OC)c1C | > 100 µM
* O=C(Nc1n[nH]c2nc(-c3ccc(O)cc3)c(Br)cc12)C1CC1 | 13.8 µM
* O=C(c1ccccc1)N(CCCCNC(=O)C(F)(F)F)CCCNC(=O)C(F)(F)F | > 100 µM
* CN(C)c1ccc(C2CC(=O)CC(c3ccc(N(C)C)cc3)C23C(=O)NC(=S)NC3=O)cc1 (stereo not given) | > 100 µM
* O=C1CCC2(CC1CCS(=O)c1ccccc1)OCCO2 (stereo not given) | > 100 µM
* N#CC(C(=O)CCC(=O)Nc1cccc(C(F)(F)F)c1)c1ccccc1 (stereo not given) | > 100 µM
* C#Cc1cccc(NC(=O)c2cccc(NC(=O)CCl)c2)c1 | 33.4 µM
* C#CCOC(=O)/C=C/C(=O)Oc1ccc2c(C)cc(=O)oc2c1 | > 100 µM
* O=Cc1ccccc1CCn1c(=O)c2cc3c(=O)n(CCc4ccccc4C=O)c(=O)c3cc2c1=O | > 100 µM
* COc1ccc(NC(=O)C(C#N)=C(SC)SC)cc1 | > 100 µM

Source of measurements: PubChem BioAssay (NCI)
